Test: Solubility in fasted state simulated intestinal fluid after 0.5 hrs
Assay type: physicochemical
quantity.name: solubility at 0.5 h (µg/mL)
Give just the numeric value; µg/mL need not be written.

Noted for Cc1cc(NC(=O)c2ccccc2)nn1Cc1cc(Cl)ccc1OCc1ccccc1 : its solubility at 0.5 h reads 38

----------
Parameter: Kp at 3 h. Scope: all listed entries.
Experiment: Ratio of drug level in brain to blood in rat at 3 mg/kg, po after 3 hrs
Assay type: ADME, organism-based
Design: dose 3 mg/kg, route oral
I'd appreciate a reply containing only the number, no unit.

CCNCc1ccc(C(=O)Nc2cc(C)n(Cc3cc(Cl)ccc3OCC(C)C)n2)cc1.Cl | 0.9

Consider now this further molecule.
Noted for Cc1cc(NC(=O)c2ccc(CN3CCCC3)cc2)nn1Cc1cc(Cl)ccc1OCC(C)C.Cl : its Kp at 3 h reads 2

These measurements were taken from ChEMBL document CHEMBL1155060.
